System: NCI-H1944;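 further: CTB read-out in 384-well plates, triplicate wells, NPI normalised per plate against 1 µM phenylarsine oxide (0) and 0.1% DMSO (1) controls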
ASSAY_TEXT: normalised cell viability (NPI; 0 = phenylarsine oxide control, 1 = DMSO control) (fraction of DMSO control); NCI-H1944 is a non-small cell lung cancer line; higher = more viable cells (less compound toxicity)
RUN_CONDITIONS: glucocorticoid arm: vehicle; compound 1 µM; 6 days
Counter-ions that a name gives are not always drawn. In all, about 1,900 compounds were measured (“normalised cell viability (NPI; 0 = phenylarsine oxide control, 1 = DMSO control)”: median about 1, lowest 2% from about 0.039 on). The entries come from a sample that favours the lowest values as a whole.
OBSERVATION_TYPE: normalised cell viability
Note: the reply should be a number with no unit written.

Ask: Consider the molecule C=CCN(C1=NCCN1)c1c(Cl)cccc1Cl [Alinidine] and give its measured normalised cell viability.
Result: 0.997

Ask: I would be grateful if you could share the reported normalised cell viability for CC1C2Cc3ccc(O)cc3C1(C)CCN2CC1CC1 (single isomer, unassigned; (+)) [(+)-Cyclazocine] .
Result: 1.01

Ask: Quick one: normalised cell viability of C=CCN1CC[C@]23c4c5ccc(O)c4O[C@H]2/C(=N/N=C2\CC[C@@]4(O)[C@H]6Cc7ccc(O)c8c7[C@@]4(CCN6CC=C)[C@H]2O8)CC[C@@]3(O)[C@H]1C5 [Naloxonazine dihydrochloride] ?
Result: 0.988

Ask: Please give the measured normalised cell viability for this molecule: NC(Cn1oc(=O)[nH]c1=O)C(=O)O (single isomer, unassigned; (+)) [(+)-Quisqualic acid]
Result: 1.01

Ask: Request the reported normalised cell viability associated with NC1CCc2cc(O)c(O)cc2C1 (configuration not stated) [6,7-ADTN hydrobromide]
Result: 0.984

Ask: Given the molecule CCS(=O)(=O)Nc1cccc(C(=C2CCCCC2)c2cnc[nH]2)c1 , what is its reported normalised cell viability?
Result: 0.985

Ask: What value of normalised cell viability has been reported for the following molecule? O=C1C=CC(=O)C=C1 [p-Benzoquinone]
Result: 1.01

Ask: Query: normalised cell viability; subject: C/C=C(/C)C(=O)O[C@H]1C(C)=C2[C@H]([C@@H]1OC(=O)CCCCCCC)[C@@](C)(OC(C)=O)C[C@H](OC(=O)CCC)[C@@]1(O)[C@H]2OC(=O)[C@@]1(C)O [Thapsigargin]
Result: 0.0393

Ask: I have this molecule here, NC(CCCCCP(=O)(O)O)C(=O)O (racemic) [(±)-2-Amino-7-phosphonoheptanoic acid] , and I need its recorded normalised cell viability.
Result: 0.987

Ask: # normalised cell viability lookup, item C[C@@H]1O[C@@H](O[C@H]2C[C@@H](O)[C@]3(CO)[C@H]4[C@H](O)C[C@]5(C)[C@@H]([C@@H]6COC(=O)C6)CC[C@]5(O)[C@@H]4CC[C@]3(O)C2)[C@H](O)[C@H](O)[C@H]1O [Dihydroouabain]
Result: 0.98

Ask: Would you kindly share the measured normalised cell viability for Clc1ccc(N2CC3CCC(C2)N3)nn1 ?
Result: 0.986

Ask: Record request: normalised cell viability value, item CC1(C(=O)O)C2CCC(O2)C1(C)C(=O)O (configuration not stated) [Cantharidic Acid]
Result: 0.965

Ask: So what does the record say about normalised cell viability for C[C@H]1OC[C@@H](C[N+](C)(C)C)O1 [(+)-cis-Dioxolane] ?
Result: 1.01

Ask: # input molecule: C=CCc1ccccc1OCC(O)CNC1(C)CCC(C(C)(C)NC(=O)CBr)CC1 (configuration not stated) [Bromoacetyl alprenolol menthane] ; wanted: its normalised cell viability
Result: 0.978

Ask: Could you share which normalised cell viability value was measured for CN1CCCCC1Cn1cc(C(=O)c2cc([N+](=O)[O-])ccc2I)c2ccccc21 (configuration not stated) ?
Result: 1.01

Ask: Can you share its normalised cell viability? I mean this molecule: Cc1o[nH]c(=O)c1CC(N)C(=O)O (racemic) [(±)-AMPA hydrobromide]
Result: 0.982

Ask: What measured normalised cell viability goes with O=C[C@H](Cl)[C@@H](O)[C@H](O)[C@H](O)CO [2-Chloro-2-deoxy-D-glucose] ?
Result: 0.981

Ask: Consider the molecule C[C@H]1CNCCc2ccc(Cl)cc21 [Lorcaserin HCl] and give its measured normalised cell viability.
Result: 1

Ask: Using the record for Cc1nc(-c2ccc(-c3ccc(C(=O)N4CCc5cc6c(cc54)C4(CCN(C)CC4)CO6)cc3)c(C)c2)no1 , report its normalised cell viability.
Result: 0.994

Ask: Item under review: CS(=N)(=O)CC[C@H](N)C(=O)O (stereo partly drawn) [L-Methionine sulfoximine] . Reported normalised cell viability?
Result: 0.999

Ask: # input molecule: CC(N)C(O)c1ccc(O)c(O)c1 (single isomer, unassigned; (-)) [(-)-alpha-Methylnorepinephrine] ; wanted: its normalised cell viability
Result: 0.997

Ask: // query normalised cell viability value for entry c1ccc(C2(c3ccccc3)CC2C2=NCCN2)cc1 (configuration not stated) [Cibenzoline succinate]
Result: 1.01

Ask: Return reported normalised cell viability; argument: CN(N=O)c1ccc(O)c(O)c1 [Me-3,4-dephostatin]
Result: 1.01

Ask: Please look up its normalised cell viability: N=C(NCCC[C@H](N)C(=O)O)N[N+](=O)[O-] [NG-Nitro-L-arginine]
Result: 1

Ask: # get_value(readout='normalised cell viability', item= CC[C@H]1CN2CCc3cc(OC)c(OC)cc3[C@@H]2C[C@@H]1C[C@H]1NCCc2cc(OC)c(OC)cc21 [Emetine dihydrochloride hydrate] )
Result: 0.0125

Ask: Give its normalised cell viability value. Item: CCCCN1[C@@H]2CC[C@H]1CC(OC(c1ccc(F)cc1)c1ccc(F)cc1)C2 (some centres not stated) [JHW 007 hydrochloride]
Result: 0.993

Ask: normalised cell viability for CCc1c(C(=O)OC)ncc2[nH]c3cc(OC)c(OC)cc3c12 [Methyl 6,7-dimethoxy-4-ethyl-beta-carboline-3-carboxylate] ?
Result: 1

Ask: I am curious: what normalised cell viability value has been reported for CN1CC[C@]2(CCN3CCc4c(oc5ccccc45)[C@@H]3C2)N(C)C1=O ?
Result: 1.01

Ask: What does the record list as normalised cell viability for CCN(CC)C(=O)N[C@H]1C[C@@H]2c3cccc4[nH]cc(c34)C[C@H]2N(C)C1 [S(+)-Terguride] ?
Result: 0.995

Ask: Need normalised cell viability, item C[C@H]1O[C@@H](C[N+](C)(C)C)CS1
Result: 0.986

Ask: Quick check: normalised cell viability of C=C(C)[C@H]1Cc2c(ccc3c2O[C@@H]2COc4cc(OC)c(OC)cc4[C@@H]2C3=O)O1 [Rotenone] ?
Result: 0.22

Ask: Give its normalised cell viability value. Item: C[C@H](N)CN1CCc2ccc(Br)cc21 [VER-3323 hemifumarate salt]
Result: 0.99
